These entries and their values trace back to ChEMBL document CHEMBL4052765.

Collected MIC values appear next to each entry.
system: Streptococcus pneumoniae; test: Antibacterial activity against erythromycin-resistant Streptococcus pneumoniae A22072 harboring mef gene after 24 h by NCCLS broth microdilution method; assay type: functional; conditions: A22072, 24 h
Property label: MIC (mg/L)

CC[C@H]1OC(=O)[C@H](C)C(=O)[C@H](C)[C@@H](O[C@@H]2O[C@H](C)C[C@H](N(C)C)[C@H]2O)[C@](C)(OC)C[C@@H](C)C(=O)[C@H](C)[C@@H](OC(=O)NCCNC(=O)c2ccccc2O)[C@]1(C)O    4
CC[C@H]1OC(=O)[C@H](C)C(=O)[C@H](C)[C@@H](O[C@@H]2O[C@H](C)C[C@H](N(C)C)[C@H]2O)[C@](C)(OC)C[C@@H](C)C(=O)[C@H](C)[C@@H](OC(=O)NCCNC(=O)c2cc([N+](=O)[O-])cc([N+](=O)[O-])c2)[C@]1(C)O    0.5
